assay: Metabolic stability of exemplified compounds (Example 4); format: in vitro ADME; settings: Mouse liver microsomes
quantity-kind: microsomal CLint

[
  {
    "compound-structure-string": "N#Cc1nc(-c2cc(Cl)cc(Cl)c2Cl)oc1NC/C=C/COCc1ccccc1",
    "meas-value": "100 to 200 µL/min/mg"
  },
  {
    "compound-structure-string": "N#Cc1nc(-c2cc(Cl)cc(Cl)c2Cl)oc1NCCCCO",
    "meas-value": "< 20 µL/min/mg"
  },
  {
    "compound-structure-string": "COCC/C=C/CNc1oc(-c2cc(Cl)cc(Cl)c2Cl)nc1C#N",
    "meas-value": "100 to 200 µL/min/mg"
  },
  {
    "compound-structure-string": "CNc1oc(-c2cc(Cl)cc(Cl)c2Cl)nc1C#N",
    "meas-value": "20 to 100 µL/min/mg"
  },
  {
    "compound-structure-string": "COCCOCCNc1oc(-c2cc(Cl)cc(Cl)c2Cl)nc1C#N",
    "meas-value": "< 20 µL/min/mg"
  },
  {
    "compound-structure-string": "N#Cc1nc(-c2cc(Cl)cc(Cl)c2Cl)oc1NCC#CCOCc1ccccc1",
    "meas-value": "20 to 100 µL/min/mg"
  },
  {
    "compound-structure-string": "COCCNc1oc(-c2cc(Cl)cc(Cl)c2Cl)nc1C#N",
    "meas-value": "100 to 200 µL/min/mg"
  },
  {
    "compound-structure-string": "N#Cc1nc(-c2cc(Cl)cc(Cl)c2Cl)oc1NCCCO",
    "meas-value": "100 to 200 µL/min/mg"
  },
  {
    "compound-structure-string": "N#Cc1nc(-c2cc(Cl)cc(Cl)c2Cl)oc1NCCOCCO",
    "meas-value": "20 to 100 µL/min/mg"
  }
]

* * *

test: Metabolic stability of exemplified compounds (Example 4); format: in vitro ADME; settings: Human liver microsomes
quantity-kind: microsomal CLint

[
  {
    "compound-structure-string": "N#Cc1nc(-c2cc(Cl)cc(Cl)c2Cl)oc1NCCCO",
    "quantity-kind": "microsomal CLint",
    "meas-value": "< 20 µL/min/mg"
  },
  {
    "compound-structure-string": "COC/C=C/CNc1oc(-c2cc(Cl)cc(Cl)c2Cl)nc1C#N",
    "quantity-kind": "microsomal CLint",
    "meas-value": "20 to 100 µL/min/mg"
  },
  {
    "compound-structure-string": "CNc1oc(-c2cc(Cl)cc(Cl)c2Cl)nc1C#N",
    "quantity-kind": "microsomal CLint",
    "meas-value": "20 to 100 µL/min/mg"
  },
  {
    "compound-structure-string": "CC(C)OCCOCCNc1oc(-c2cc(Cl)cc(Cl)c2Cl)nc1C#N",
    "quantity-kind": "microsomal CLint",
    "meas-value": "< 20 µL/min/mg"
  },
  {
    "compound-structure-string": "N#Cc1nc(-c2cc(Cl)cc(Cl)c2Cl)oc1NCCCCO",
    "quantity-kind": "microsomal CLint",
    "meas-value": "< 20 µL/min/mg"
  },
  {
    "compound-structure-string": "N#Cc1nc(-c2cc(Cl)cc(Cl)c2Cl)oc1NCCCCCO",
    "quantity-kind": "microsomal CLint",
    "meas-value": "20 to 100 µL/min/mg"
  },
  {
    "compound-structure-string": "N#Cc1nc(-c2cc(Cl)cc(Cl)c2Cl)oc1NC/C=C/COCc1ccccc1",
    "quantity-kind": "microsomal CLint",
    "meas-value": "100 to 200 µL/min/mg"
  },
  {
    "compound-structure-string": "COCC/C=C/CNc1oc(-c2cc(Cl)cc(Cl)c2Cl)nc1C#N",
    "quantity-kind": "microsomal CLint",
    "meas-value": "20 to 100 µL/min/mg"
  },
  {
    "compound-structure-string": "COCCOCCNc1oc(-c2cc(Cl)cc(Cl)c2Cl)nc1C#N",
    "quantity-kind": "microsomal CLint",
    "meas-value": "< 20 µL/min/mg"
  }
]
